Would you kindly list self-cleavage kobs at 640 uM GlcN6P for each of these variants?
B1: glmS ribozyme (parent)
chain: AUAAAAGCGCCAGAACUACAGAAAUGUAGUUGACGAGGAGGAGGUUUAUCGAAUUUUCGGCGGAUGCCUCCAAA

# Variants of: B1
# PROTOCOL DESCRIPTION: self-cleavage kobs at 640 uM GlcN6P; higher = faster cleavage; RNA array
# REPORTED CONDITIONS: with glucosamine-6-phosphate
Fewer inactive variants are shown than the library holds.

Recorded self-cleavage kobs at 640 uM GlcN6P (variant A53G G66U ): 0.00056 s⁻¹

Recorded self-cleavage kobs at 640 uM GlcN6P (variant A6U C8U ): < 1e-05 s⁻¹

Recorded self-cleavage kobs at 640 uM GlcN6P (variant G32A U65A ): 5.66e-05 s⁻¹

Recorded self-cleavage kobs at 640 uM GlcN6P (variant C11G U45G C71U ): < 1e-05 s⁻¹

Recorded self-cleavage kobs at 640 uM GlcN6P (variant A14C U31A ): 0.00413 s⁻¹

Recorded self-cleavage kobs at 640 uM GlcN6P (variant G37A U46G ): 0.000102 s⁻¹

Recorded self-cleavage kobs at 640 uM GlcN6P (variant U69A C70U ): 4.97e-05 s⁻¹

Recorded self-cleavage kobs at 640 uM GlcN6P (variant C8U U56G G63A ): < 1e-05 s⁻¹

Recorded self-cleavage kobs at 640 uM GlcN6P (variant G9U G43U ): < 1e-05 s⁻¹

Recorded self-cleavage kobs at 640 uM GlcN6P (variant G29U C70U ): 0.000574 s⁻¹

Recorded self-cleavage kobs at 640 uM GlcN6P (variant C34G G41C C71U ): < 1e-05 s⁻¹
